Species on record: Homo sapiens
Test: Selectivity ratio of IC50 for human eNOS to IC50 for human iNOS
// reported Ratio IC50 per item
No unit in the answer, only the number.

* O=c1cc(CN(Cc2ccccc2Cl)c2cnccn2)c2ccc(F)c(F)c2[nH]1 | 1000

Turning now to a further molecule:
Briefly, Ratio IC50 measured for O=c1cc(CN(Cc2ccccc2)c2cnccn2)c2ccc(F)c(F)c2[nH]1 : 500

* * *

Experiment: Half life in mouse liver microsomes
Assay type: ADME, Microsome
// reported half-life per item

Consider the following illustrative entries.
- O=c1cc(CN(Cc2ccc(Cl)cc2)c2cnccn2)c2ccc(F)c(F)c2[nH]1: < 20 min
- O=c1cc(CN(Cc2ccccn2)c2cnccn2)c2ccc(F)c(F)c2[nH]1: < 20 min
- Cc1nccc(N(Cc2cc(=O)[nH]c3c(F)c(F)ccc23)c2cccc(Cl)c2)n1: 90 min
- O=c1cc(CN(Cc2cccc(Cl)c2)c2cnccn2)c2ccc(F)c(F)c2[nH]1: < 20 min

Turning now to a further molecule:
Briefly, half-life measured for Cn1ncc2c(N(Cc3cc(=O)[nH]c4c(F)c(F)ccc34)c3cccc(Cl)c3)ncnc21 : < 30 min

* * *

Assay: Plasma clearance in mouse
Format: ADME, organism-based
REPORTED_METRIC: clearance (mL/min/kg)
Field format: number, assumed mL/min/kg, no unit text.

Briefly, clearance measured for O=c1cc(CN(c2cccc(Cl)c2)c2cnccn2)c2ccc(F)c(F)c2[nH]1 : 34

* * *

Target: Nitric oxide synthase, inducible (Homo sapiens, UniProt P35228)
Sequence (P35228 whole entry): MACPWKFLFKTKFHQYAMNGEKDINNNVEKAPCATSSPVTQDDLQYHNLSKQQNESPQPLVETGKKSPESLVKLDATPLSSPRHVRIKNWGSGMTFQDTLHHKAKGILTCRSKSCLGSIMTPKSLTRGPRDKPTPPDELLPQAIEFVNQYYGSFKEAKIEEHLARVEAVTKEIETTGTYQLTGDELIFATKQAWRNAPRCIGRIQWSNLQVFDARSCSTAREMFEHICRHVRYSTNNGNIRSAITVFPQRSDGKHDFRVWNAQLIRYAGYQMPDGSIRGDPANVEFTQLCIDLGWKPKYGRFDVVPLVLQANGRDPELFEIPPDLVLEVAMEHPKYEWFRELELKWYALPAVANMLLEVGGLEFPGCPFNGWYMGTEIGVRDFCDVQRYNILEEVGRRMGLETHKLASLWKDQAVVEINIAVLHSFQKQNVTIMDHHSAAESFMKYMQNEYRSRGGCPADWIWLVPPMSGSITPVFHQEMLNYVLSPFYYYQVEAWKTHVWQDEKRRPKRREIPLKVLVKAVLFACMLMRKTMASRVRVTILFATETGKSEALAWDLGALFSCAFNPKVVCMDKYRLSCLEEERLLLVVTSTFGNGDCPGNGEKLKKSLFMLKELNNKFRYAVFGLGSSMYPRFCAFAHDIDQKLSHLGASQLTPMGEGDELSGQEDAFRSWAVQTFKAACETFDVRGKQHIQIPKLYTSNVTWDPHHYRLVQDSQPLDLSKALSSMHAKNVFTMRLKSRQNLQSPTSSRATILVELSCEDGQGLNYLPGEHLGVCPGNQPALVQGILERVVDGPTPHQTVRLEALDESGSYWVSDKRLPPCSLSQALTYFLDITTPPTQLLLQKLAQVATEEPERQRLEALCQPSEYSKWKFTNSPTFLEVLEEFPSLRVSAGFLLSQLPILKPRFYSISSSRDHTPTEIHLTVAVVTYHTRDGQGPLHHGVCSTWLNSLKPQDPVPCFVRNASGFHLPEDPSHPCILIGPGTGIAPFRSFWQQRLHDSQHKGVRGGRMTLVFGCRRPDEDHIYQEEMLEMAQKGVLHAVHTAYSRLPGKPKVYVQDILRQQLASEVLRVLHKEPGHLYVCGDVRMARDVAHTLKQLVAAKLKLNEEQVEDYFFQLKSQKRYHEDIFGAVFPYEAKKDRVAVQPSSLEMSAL
Assay: Inhibition of human iNOS expressed in HEK293 cells assessed as NO production by 2,3-diaminonapthalene-based fluorescence assay
Assay type: cell-based
// reported IC50 per item
Field format: number, assumed nM, no unit text.

Consider the following illustrative entries.
- O=c1cc(CN(c2ccccc2)c2cccc(Cl)c2)c2ccc(F)c(F)c2[nH]1: 1500
- O=c1cc(CN(c2cccc(Cl)c2)c2cccnn2)c2ccc(F)c(F)c2[nH]1: 43
- O=c1cc(CN(c2cccc(Cl)c2)c2ccncn2)c2ccc(F)c(F)c2[nH]1: 14
- COc1cc(N(Cc2cc(=O)[nH]c3c(F)c(F)ccc23)c2cccc(Cl)c2)ncn1: 61
- CN(C)c1cc(N(Cc2cc(=O)[nH]c3c(F)c(F)ccc23)c2cccc(Cl)c2)ncn1: 28
- O=c1cc(CN(Cc2ccc(Cl)cc2)c2cnccn2)c2ccc(F)c(F)c2[nH]1: 77

Briefly, IC50 measured for O=c1cc(CN(Cc2cccc(Cl)c2)c2cnccn2)c2ccc(F)c(F)c2[nH]1 : 220

Briefly, IC50 measured for O=c1cc(CN(c2cccnc2)c2cccc(Cl)c2)c2ccc(F)c(F)c2[nH]1 : 77

Briefly, IC50 measured for O=c1cc(CN(c2cccc(Cl)c2)c2ncccn2)c2ccc(F)c(F)c2[nH]1 : 13

Briefly, IC50 measured for Cn1ncc2c(N(Cc3cc(=O)[nH]c4c(F)c(F)ccc34)c3cccc(Cl)c3)ncnc21 : 11

Briefly, IC50 measured for O=c1cc(CN(c2ccncc2)c2cccc(Cl)c2)c2ccc(F)c(F)c2[nH]1 : 130

Briefly, IC50 measured for Cc1cc(N(Cc2cc(=O)[nH]c3c(F)c(F)ccc23)c2cccc(Cl)c2)ncn1 : 53

Briefly, IC50 measured for O=c1cc(CN(Cc2ccccc2)c2cnccn2)c2ccc(F)c(F)c2[nH]1 : 13

Briefly, IC50 measured for O=c1cc(CN(Cc2ccccc2F)c2cnccn2)c2ccc(F)c(F)c2[nH]1 : 12

Briefly, IC50 measured for O=c1cc(CN(c2cccc(Cl)c2)c2cnccn2)c2ccc(F)c(F)c2[nH]1 : 5

Briefly, IC50 measured for CN(C)c1nccc(N(Cc2cc(=O)[nH]c3c(F)c(F)ccc23)c2cccc(Cl)c2)n1 : 1300

* * *

// reported IC50 per item
Target: Nitric oxide synthase 3 (Homo sapiens)
Assay: Inhibition of human eNOS expressed in HEK293 cells assessed as NO production by 2,3-diaminonapthalene-based fluorescence assay
Field format: number, assumed µM, no unit text.

• O=c1cc(CN(c2cncnc2)c2cccc(Cl)c2)c2ccc(F)c(F)c2[nH]1 = 79
• O=c1cc(CN(Cc2ccccc2)c2cnccn2)c2ccc(F)c(F)c2[nH]1 = 6.4
• O=c1cc(CN(c2cccc(Cl)c2)c2cnccn2)c2ccc(F)c(F)c2[nH]1 = 1.5
• O=c1cc(CN(Cc2ccccc2F)c2cnccn2)c2ccc(F)c(F)c2[nH]1 = 11
• O=c1cc(CN(c2cccc(Cl)c2)c2cccnn2)c2ccc(F)c(F)c2[nH]1 = 21

Briefly, IC50 measured for O=c1cc(CN(c2cccc(Cl)c2)c2ccncn2)c2ccc(F)c(F)c2[nH]1 : 13

Briefly, IC50 measured for O=c1cc(CN(Cc2cccc(Cl)c2)c2cnccn2)c2ccc(F)c(F)c2[nH]1 : 8.3

Briefly, IC50 measured for O=c1cc(CN(Cc2ccccc2Cl)c2cnccn2)c2ccc(F)c(F)c2[nH]1 : 12

* * *

// reported AUC per item
Experiment: AUC in mouse at 10 mg/kg, po
Format: ADME, organism-based
Design: dose 10 mg/kg, route oral
Details: plasma
Field format: number, assumed ng·h/mL, no unit text.

Briefly, AUC measured for O=c1cc(CN(c2cccc(Cl)c2)c2cnccn2)c2ccc(F)c(F)c2[nH]1 : 120

Briefly, AUC measured for O=c1cc(Cn2c(C3CCC3)nc3nccnc32)c2ccc(F)c(F)c2[nH]1 : 25000

* * *

Experiment: Cmax in mouse at 10 mg/kg, po
Type: ADME, organism-based
Parameters: dose 10 mg/kg, route oral
Conditions: in vivo
REPORTED_METRIC: Cmax (ng/mL)
Field format: number, assumed ng/mL, no unit text.

Briefly, Cmax measured for O=c1cc(CN(c2cccc(Cl)c2)c2cnccn2)c2ccc(F)c(F)c2[nH]1 : 45

* * *

Biological target: Nitric oxide synthase 3 (Homo sapiens)
Assay: Inhibition of human eNOS expressed in HEK293 cells assessed as NO production by 2,3-diaminonapthalene-based fluorescence assay
pIC50: −log10 of the molar value.
Cut-off 5 on pIC50, inclusive. At or above means Yes; below means No.

Please review the entries below; each comes with its answer.
• COc1cc(N(Cc2cc(=O)[nH]c3c(F)c(F)ccc23)c2cccc(Cl)c2)ncn1 = No
• O=c1cc(CN(c2cccc(Cl)c2)c2ncccn2)c2ccc(F)c(F)c2[nH]1 = Yes
• O=c1cc(CN(c2ccncc2)c2cccc(Cl)c2)c2ccc(F)c(F)c2[nH]1 = No
• O=c1cc(CN(Cc2ccc(Cl)cc2)c2cnccn2)c2ccc(F)c(F)c2[nH]1 = Yes
• O=c1cc(CN(c2cccc(Cl)c2)c2ccccn2)c2ccc(F)c(F)c2[nH]1 = No

## Task Answer whether pIC50 of O=c1cc(CN(c2cccnc2)c2cccc(Cl)c2)c2ccc(F)c(F)c2[nH]1 is greater than or equal to 5.
## Result No

* * *

Target: UniProt P29477
Sequence (P29477 whole entry): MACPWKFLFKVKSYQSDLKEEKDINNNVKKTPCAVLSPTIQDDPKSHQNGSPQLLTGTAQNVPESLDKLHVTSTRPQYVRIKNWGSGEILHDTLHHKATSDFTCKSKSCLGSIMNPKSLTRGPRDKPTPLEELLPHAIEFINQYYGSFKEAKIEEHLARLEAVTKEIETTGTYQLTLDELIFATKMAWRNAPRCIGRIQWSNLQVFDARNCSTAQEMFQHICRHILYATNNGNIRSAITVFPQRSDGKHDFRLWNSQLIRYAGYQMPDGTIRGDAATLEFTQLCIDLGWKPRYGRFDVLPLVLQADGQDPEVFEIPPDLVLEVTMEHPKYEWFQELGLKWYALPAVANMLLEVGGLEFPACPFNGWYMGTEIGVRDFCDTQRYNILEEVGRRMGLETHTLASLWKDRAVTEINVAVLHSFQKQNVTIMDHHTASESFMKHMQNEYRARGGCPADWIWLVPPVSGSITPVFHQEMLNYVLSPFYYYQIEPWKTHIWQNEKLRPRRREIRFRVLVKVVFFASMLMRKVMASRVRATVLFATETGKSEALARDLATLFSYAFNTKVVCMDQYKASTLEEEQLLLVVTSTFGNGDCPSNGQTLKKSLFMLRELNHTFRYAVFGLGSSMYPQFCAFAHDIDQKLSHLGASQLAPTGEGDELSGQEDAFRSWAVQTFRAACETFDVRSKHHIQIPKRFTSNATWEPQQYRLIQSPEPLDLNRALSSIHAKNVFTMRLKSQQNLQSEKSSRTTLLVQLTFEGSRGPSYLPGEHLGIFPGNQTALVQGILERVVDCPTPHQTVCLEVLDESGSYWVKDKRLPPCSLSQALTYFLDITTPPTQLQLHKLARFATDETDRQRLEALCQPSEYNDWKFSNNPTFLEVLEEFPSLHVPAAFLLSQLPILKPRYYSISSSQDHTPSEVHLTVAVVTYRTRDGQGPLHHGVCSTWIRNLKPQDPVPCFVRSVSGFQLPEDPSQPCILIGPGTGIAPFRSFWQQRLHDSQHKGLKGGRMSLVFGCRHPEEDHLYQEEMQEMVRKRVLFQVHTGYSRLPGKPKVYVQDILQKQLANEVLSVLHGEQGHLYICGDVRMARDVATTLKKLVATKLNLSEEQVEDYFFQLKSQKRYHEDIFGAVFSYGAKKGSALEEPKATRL
REPORTED_METRIC: IC50 (nM)
Field format: number, assumed nM, no unit text.

Item: O=c1cc(CN(c2cccc(Cl)c2)c2cnccn2)c2ccc(F)c(F)c2[nH]1 | System: UniProt P29477 | IC50: 5

* * *

Assay: Half life in mouse
Format: ADME, organism-based
Settings: in vivo
REPORTED_METRIC: half-life (h)
Field format: number, assumed h, no unit text.

Briefly, half-life measured for O=c1cc(CN(c2cccc(Cl)c2)c2cnccn2)c2ccc(F)c(F)c2[nH]1 : 2.1

* * *

Target: UniProt P35228
Assay: Inhibition of human iNOS expressed in HEK293 cells assessed as NO production by 2,3-diaminonapthalene-based fluorescence assay
Mark Criterion met only when IC50 stays strictly below 80 nM. Values equal to the cut-off are Criterion not met.

Please review the entries below; each comes with its answer.
* O=c1cc(Cn2c(C3CCC3)nc3nccnc32)c2ccc(F)c(F)c2[nH]1 | Criterion not met
* Cc1nccc(N(Cc2cc(=O)[nH]c3c(F)c(F)ccc23)c2cccc(Cl)c2)n1 | Criterion met
* [O-][n+]1cc(CN(c2cccc(Cl)c2)c2ncccn2)c2ccc(F)c(F)c2c1 | Criterion met
* Fc1ccc2c(CN(c3cccc(Cl)c3)c3ncccn3)cncc2c1F | Criterion not met
* O=c1cc(CN(Cc2ccccc2Cl)c2cnccn2)c2ccc(F)c(F)c2[nH]1 | Criterion met

## Task Please state whether IC50 is below 80 nM for Cc1cccnc1N(Cc1cc(=O)[nH]c2c(F)c(F)ccc12)c1cccc(Cl)c1
## Result Criterion not met

## Task Please state whether IC50 is below 80 nM for Cc1ccccc1CN(Cc1cc(=O)[nH]c2c(F)c(F)ccc12)c1cnccn1
## Result Criterion met

## Task Please state whether IC50 is below 80 nM for O=c1cc(CN(c2cncnc2)c2cccc(Cl)c2)c2ccc(F)c(F)c2[nH]1
## Result Criterion not met

## Task Please state whether IC50 is below 80 nM for O=c1cc(CN(c2cccc(Cl)c2)c2ccccn2)c2ccc(F)c(F)c2[nH]1
## Result Criterion met

* * *

Target: Nitric oxide synthase 3 (Homo sapiens, UniProt P29474)
Sequence (P29474 whole entry): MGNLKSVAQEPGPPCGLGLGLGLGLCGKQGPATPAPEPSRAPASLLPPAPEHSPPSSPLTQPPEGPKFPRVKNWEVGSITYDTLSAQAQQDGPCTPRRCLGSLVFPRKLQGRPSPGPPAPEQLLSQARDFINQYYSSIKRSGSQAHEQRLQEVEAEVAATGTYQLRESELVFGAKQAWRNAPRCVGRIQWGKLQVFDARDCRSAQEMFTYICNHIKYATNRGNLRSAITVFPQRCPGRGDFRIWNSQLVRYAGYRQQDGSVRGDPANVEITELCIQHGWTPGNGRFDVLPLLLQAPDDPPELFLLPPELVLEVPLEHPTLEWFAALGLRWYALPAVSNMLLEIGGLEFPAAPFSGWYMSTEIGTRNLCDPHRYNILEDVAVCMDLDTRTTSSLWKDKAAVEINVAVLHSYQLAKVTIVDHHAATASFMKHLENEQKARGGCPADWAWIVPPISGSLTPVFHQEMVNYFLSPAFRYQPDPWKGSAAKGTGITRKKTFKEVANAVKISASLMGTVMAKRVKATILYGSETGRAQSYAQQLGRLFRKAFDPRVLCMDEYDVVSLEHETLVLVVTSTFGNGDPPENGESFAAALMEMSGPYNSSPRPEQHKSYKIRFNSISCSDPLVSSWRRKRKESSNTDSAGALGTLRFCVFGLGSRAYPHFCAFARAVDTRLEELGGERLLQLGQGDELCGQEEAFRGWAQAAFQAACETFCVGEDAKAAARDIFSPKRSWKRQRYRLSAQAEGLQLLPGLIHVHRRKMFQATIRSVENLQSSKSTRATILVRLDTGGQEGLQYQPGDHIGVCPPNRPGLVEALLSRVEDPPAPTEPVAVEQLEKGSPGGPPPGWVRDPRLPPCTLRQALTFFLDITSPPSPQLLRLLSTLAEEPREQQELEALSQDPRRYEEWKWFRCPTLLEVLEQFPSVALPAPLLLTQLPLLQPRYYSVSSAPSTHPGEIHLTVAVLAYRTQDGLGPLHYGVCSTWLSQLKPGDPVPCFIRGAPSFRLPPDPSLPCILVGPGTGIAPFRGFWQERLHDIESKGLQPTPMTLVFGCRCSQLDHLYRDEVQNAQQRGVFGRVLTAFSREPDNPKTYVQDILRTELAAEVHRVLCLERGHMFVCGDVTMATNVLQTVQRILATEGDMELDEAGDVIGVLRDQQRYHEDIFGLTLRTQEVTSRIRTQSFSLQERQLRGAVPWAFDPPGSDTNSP
Test: Inhibition of human eNOS expressed in HEK293 cells assessed as NO production by 2,3-diaminonapthalene-based fluorescence assay
REPORTED_METRIC: IC50

* O=c1cc(CN(c2ccccc2)c2cccc(Cl)c2)c2ccc(F)c(F)c2[nH]1 | > 30 µM
* CN(C)c1cc(N(Cc2cc(=O)[nH]c3c(F)c(F)ccc23)c2cccc(Cl)c2)ncn1 | > 30 µM

Turning now to a further compound:
Briefly, IC50 measured for CN(C)c1nccc(N(Cc2cc(=O)[nH]c3c(F)c(F)ccc23)c2cccc(Cl)c2)n1 : > 30 µM

Cited source for all entries: ChEMBL document CHEMBL1944593
